B1: ADD1 (parent)
chain: FASDGDSGTCSPLRHSFQKQQREK

# Variants of: B1
# Assay Comment: protein stability index of a GFP-peptide fusion (GPS, HEK-293T) (PSI 1-6); higher = more stable;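 note: lentivirally expressed fusions sorted by FACS into six bins by GFP to DsRed ratio, PSI derived from sequencing read proportions per bin multiplied by bin number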
# Test Context: c terminus: a fixed tail appended
Give 1 (yes) when the value for protein stability index is at least 4. Give 0 (no) when it is less.

Answered cases to consult:
Mutation String	Label
R14Y	0 (no)
T9P	1 (yes)
D6P	0 (no)
C10I	1 (yes)
A2D	1 (yes)
T9W	0 (no)
Q20W	0 (no)
S7P	0 (no)
Q21V	0 (no)
P12M	1 (yes)

*Q* Decide: is the reported value of protein stability index for C10S equal to or greater than 4?
*A* 1 (yes)

*Q* Also Q18E ?
*A* 0 (no)

*Q* Also Q18K ?
*A* 0 (no)
